System: Escherichia coli TOP10;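 note: peptides expressed intracellularly from a pBAD plasmid library in pooled LB shake-flask culture, induced with 0.3% L-arabinose, DNA abundance read by NGS, three biological replicates, DESeq2 with apeglm shrinkage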
Assay: shrunken log2 fold change of peptide-encoding DNA abundance (4.5 h post-induction vs induction); higher = less antimicrobial activity (less host growth inhibition)
Conditions: time post-induction: 4.5 h; library: site-saturation at positions 5, 18, 19, 20
quantity_name: shrunken log2 fold change

# entry_sequence, quantity_name, val
rows = [
    ("RRIRERPPRLPRPRPRPCRYPRP", "shrunken log2 fold change", -0.00318),
    ("RRIRHRPPRLPRPRPRPLSIPRP", "shrunken log2 fold change", -0.326),
    ("RRIRERPPRLPRPRPRPHLGPRP", "shrunken log2 fold change", -0.0405),
    ("RRIRWRPPRLPRPRPRPAYRPRP", "shrunken log2 fold change", -0.00641),
    ("RRIRHRPPRLPRPRPRPFVQPRP", "shrunken log2 fold change", -0.14),
    ("RRIRHRPPRLPRPRPRPTVNPRP", "shrunken log2 fold change", -0.144),
    ("RRIRQRPPRLPRPRPRPERVPRP", "shrunken log2 fold change", 0.0836),
    ("RRIRARPPRLPRPRPRPKLRPRP", "shrunken log2 fold change", 0.178),
    ("RRIRERPPRLPRPRPRPMGAPRP", "shrunken log2 fold change", 0.0638),
    ("RRIRFRPPRLPRPRPRPDYLPRP", "shrunken log2 fold change", -0.159),
    ("RRIRTRPPRLPRPRPRPWEQPRP", "shrunken log2 fold change", 0.0248),
    ("RRIRRRPPRLPRPRPRPDGNPRP", "shrunken log2 fold change", 0.0694),
    ("RRIRPRPPRLPRPRPRPVRHPRP", "shrunken log2 fold change", 0.119),
    ("RRIRARPPRLPRPRPRPDITPRP", "shrunken log2 fold change", 0.491),
    ("RRIRNRPPRLPRPRPRPWFFPRP", "shrunken log2 fold change", -0.0137),
]
